- assay_summary: Inhibition of Influenza A virus A/chicken/shandong/S2/02(H9N2) Neuraminidase
# IC50 annotations
Field format: number, assumed nM, no unit text.

Entry "CCC(CC)O[C@@H]1C=C(C(=O)O)C[C@H](NCc2ccccc2Br)[C@H]1NC(C)=O" — recorded IC50 = 42

Entry "CCC(CC)O[C@@H]1C=C(C(=O)O)C[C@H](NCCCN)[C@H]1NC(C)=O" — recorded IC50 = 1050

====

- assay_summary: Inhibition of Influenza A virus A/chicken/shandong/S2/02(H9N2) Neuraminidase
property_name: pIC50
A value of pIC50 is the negative decimal logarithm of a concentration given in moles per litre.

>  <smiles_input>
CCC(CC)O[C@@H]1C=C(C(=O)O)C[C@H](NCC(C)C)[C@H]1NC(C)=O

>  <pIC50>
5.76

$$$$
>  <smiles_input>
CCC(CC)O[C@@H]1C=C(C(=O)O)C[C@H](NCc2ccccc2OCc2ccco2)[C@H]1NC(C)=O

>  <pIC50>
6.14

$$$$
>  <smiles_input>
CCC(CC)O[C@@H]1C=C(C(=O)O)C[C@H](NCc2ccccc2OC)[C@H]1NC(C)=O

>  <pIC50>
6.60

$$$$
>  <smiles_input>
CCC(CC)O[C@@H]1C=C(C(=O)O)C[C@H](NCc2ccccc2F)[C@H]1NC(C)=O

>  <pIC50>
6.19

$$$$

Entry "CCC(CC)O[C@@H]1C=C(C(=O)O)C[C@H](NCc2cccs2)[C@H]1NC(C)=O" — recorded pIC50 = 7.00

Entry "CCC(CC)O[C@@H]1C=C(C(=O)NO)C[C@H](NC(=N)N)[C@H]1NC(C)=O" — recorded pIC50 = 6.80

Entry "CCC(CC)CN[C@H]1CC(C(=O)O)=C[C@@H](OC(CC)CC)[C@@H]1NC(C)=O" — recorded pIC50 = 7.15

====

# IC50 annotations
- assay_summary: Inhibition of Influenza A virus A/duck/china/QJ/01(H5N1) Neuraminidase
Field format: number, assumed nM, no unit text.

As a guide, the following entries are already answered.
>  <smiles_input>
CCC(CC)O[C@@H]1C=C(C(=O)O)C[C@H](N(Cc2ccc(-c3ccccc3)cc2)C(=N)N)[C@H]1NC(C)=O

>  <property_name>
IC50

>  <test_value>
430

$$$$
>  <smiles_input>
CCC(CC)O[C@@H]1C=C(C(=O)O)C[C@H](NCc2ccccc2Cl)[C@H]1NC(C)=O

>  <property_name>
IC50

>  <test_value>
29

$$$$
>  <smiles_input>
CCC(CC)O[C@@H]1C=C(C(=O)O)C[C@H](N(Cc2cccs2)C(=N)N)[C@H]1NC(C)=O

>  <property_name>
IC50

>  <test_value>
190

$$$$
>  <smiles_input>
CCC(CC)O[C@@H]1C=C(C(=O)O)C[C@H](NCc2ccccc2Br)[C@H]1NC(C)=O

>  <property_name>
IC50

>  <test_value>
56

$$$$
>  <smiles_input>
CCC(CC)O[C@@H]1C=C(C(=O)O)C[C@H](NCc2ccc(-c3ccccc3)cc2)[C@H]1NC(C)=O

>  <property_name>
IC50

>  <test_value>
6.7

$$$$
>  <smiles_input>
CCC(CC)O[C@@H]1C=C(C(=O)O)C[C@H](NCCCc2ccccc2)[C@H]1NC(C)=O

>  <property_name>
IC50

>  <test_value>
190

$$$$
>  <smiles_input>
CCC(CC)O[C@@H]1C=C(C(=O)O)C[C@H](NCc2ccc(-c3ccccc3)cc2Cl)[C@H]1NC(C)=O

>  <property_name>
IC50

>  <test_value>
44

$$$$
>  <smiles_input>
CCC(CC)O[C@@H]1C=C(C(=O)O)C[C@H](NCC(C)C)[C@H]1NC(C)=O

>  <property_name>
IC50

>  <test_value>
99

$$$$

Entry "CCC(CC)O[C@@H]1C=C(C(=O)O)C[C@H](NCc2ccc(-c3cccs3)cc2)[C@H]1NC(C)=O" — recorded IC50 = 14

Entry "CCCCN[C@H]1CC(C(=O)O)=C[C@@H](OC(CC)CC)[C@@H]1NC(C)=O" — recorded IC50 = 76

Entry "CCC(CC)O[C@@H]1C=C(C(=O)O)C[C@H](NCc2ccccc2O)[C@H]1NC(C)=O" — recorded IC50 = 194

Entry "CCC(CC)O[C@@H]1C=C(C(=O)O)C[C@H](N(Cc2ccc(C(C)C)cc2)C(=N)N)[C@H]1NC(C)=O" — recorded IC50 = 3200

Entry "CCC(CC)CN[C@H]1CC(C(=O)O)=C[C@@H](OC(CC)CC)[C@@H]1NC(C)=O" — recorded IC50 = 540

Entry "CCC(CC)O[C@@H]1C=C(C(=O)NO)C[C@H](N)[C@H]1NC(C)=O" — recorded IC50 = 180

Entry "CCC(CC)O[C@@H]1C=C(C(=O)O)C[C@H](NC/C=C/c2ccccc2)[C@H]1NC(C)=O" — recorded IC50 = 106

Entry "CCC(CC)O[C@@H]1C=C(C(=O)O)C[C@H](NCc2ccccc2)[C@H]1NC(C)=O" — recorded IC50 = 80

Entry "CCC(CC)O[C@@H]1C=C(C(=O)O)C[C@H](NCc2ccc(-c3ccccc3)cc2-c2ccccc2)[C@H]1NC(C)=O" — recorded IC50 = 58

Entry "CCC(CC)O[C@@H]1C=C(C(=O)O)C[C@H](N(CC(C)C)C(=N)N)[C@H]1NC(C)=O" — recorded IC50 = 450

Entry "CCC(CC)O[C@@H]1C=C(C(=O)O)C[C@H](NCc2ccccc2F)[C@H]1NC(C)=O" — recorded IC50 = 108
